Molecular target: T1, mouse LAG-3 protein with hFc tag (mLAG-3-hFc protein) (mouse; human, UniProt Q61790 24-442)
T1 construct: Made in HEK293 cells; also called mouse LAG-3 extracellular domain protein; not shown: human IgG Fc fragment (hFc) of the pCpC vector
T1 sequence: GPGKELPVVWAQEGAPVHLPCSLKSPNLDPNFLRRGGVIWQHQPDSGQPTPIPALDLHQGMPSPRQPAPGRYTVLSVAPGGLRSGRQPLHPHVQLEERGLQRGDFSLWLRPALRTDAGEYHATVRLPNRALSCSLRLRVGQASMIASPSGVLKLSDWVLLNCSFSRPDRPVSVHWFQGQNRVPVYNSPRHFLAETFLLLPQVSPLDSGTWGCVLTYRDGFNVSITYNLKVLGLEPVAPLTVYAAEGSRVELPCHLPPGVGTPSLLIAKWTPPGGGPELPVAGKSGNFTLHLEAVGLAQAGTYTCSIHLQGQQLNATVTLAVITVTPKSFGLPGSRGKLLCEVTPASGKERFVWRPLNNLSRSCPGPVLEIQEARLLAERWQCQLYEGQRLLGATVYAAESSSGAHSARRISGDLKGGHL
Experiment: ELISA, mLAG-3-hFc coated; 0.0000 nM
OBSERVABLE: OD450 (OD450)
One number for each entry, in OD450.

Asked: Field request: OD450 | item: 105F1E10 (LAG-3 mouse-human chimeric antibody) (antibody, V domains shown) VH: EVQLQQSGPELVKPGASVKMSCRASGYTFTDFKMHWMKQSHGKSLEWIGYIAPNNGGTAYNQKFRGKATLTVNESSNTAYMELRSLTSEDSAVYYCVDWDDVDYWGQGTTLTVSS VL: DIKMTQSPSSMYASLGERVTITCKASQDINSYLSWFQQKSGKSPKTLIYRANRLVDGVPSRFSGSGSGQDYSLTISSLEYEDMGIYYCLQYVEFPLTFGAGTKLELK
Given back: 0.08

Origin of the recorded values: patent US20210155689A1
